biological target: Glycogen synthase kinase-3 beta (Homo sapiens, UniProt P49841); test: Inhibition of human recombinant GSK3beta at 10 uM after 30 mins by luminescence assay in presence of ATP
Sequence (P49841 whole entry, looked up): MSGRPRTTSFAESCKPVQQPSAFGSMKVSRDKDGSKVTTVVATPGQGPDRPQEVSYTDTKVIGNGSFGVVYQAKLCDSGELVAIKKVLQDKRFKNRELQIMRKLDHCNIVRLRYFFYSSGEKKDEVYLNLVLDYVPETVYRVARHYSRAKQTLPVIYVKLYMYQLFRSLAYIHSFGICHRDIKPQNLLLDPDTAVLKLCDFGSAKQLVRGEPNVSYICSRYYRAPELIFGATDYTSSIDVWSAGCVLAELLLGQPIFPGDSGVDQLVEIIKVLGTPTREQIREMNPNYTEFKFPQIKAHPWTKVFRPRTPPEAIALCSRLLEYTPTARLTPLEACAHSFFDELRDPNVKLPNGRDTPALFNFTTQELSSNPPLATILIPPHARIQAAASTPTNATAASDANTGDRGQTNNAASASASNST
Active and inactive are the calls of the source. The calls are words filed in the database; no cut-off is given here.
MEASURE: inhibition

INSERT INTO measurements (smiles_code, measure, result) VALUES
  ('Br.COc1ccc(-c2n/c(=N\CCO)sn2-c2ccccc2)cc1', 'inhibition', '> 60%'),
  ('COc1ccc(/C(=N\c2ccccc2)NC(=S)Nc2ccccc2)cc1', 'inhibition', 'inactive'),
  ('S=C(N/C(=N/c1ccccc1)c1ccccc1)Nc1ccccc1', 'inhibition', 'inactive'),
  ('S=C(NCc1cccnc1)N/C(=N/c1ccccc1)c1cccc2ccccc12', 'inhibition', 'inactive');

Each of the following entries comes with a recorded value; kindly state inhibition for each.
1. c1ccc(/N=C(/N=c2/nc3ccccn3s2)c2ccccc2)cc1
2. Br.OCC/N=c1\nc(-c2cccc3ccccc23)n(-c2ccccc2)s1
3. O=[N+]([O-])c1ccc(-n2s/c(=N/Cc3cccnc3)nc2-c2ccccc2)cc1
4. S=C(NCc1cccnc1)N/C(=N/Cc1ccccc1)c1ccccc1

stdout:
14%
> 60%
> 60%
inactive
